test system: Staphylococcus aureus; assay: Antibacterial activity against vancomycin-resistant Staphylococcus aureus VRS12 measured after 16 to 18 hrs; format: functional; conditions: time 16-18 hrs
Entries and their MIC values follow.

entry-smiles	qual	MIC (µg/mL)
Clc1ccc2[nH]c(-c3ccc(Nc4nc(-c5ccccc5)nc5ccccc45)cc3)nc2c1	=	8
CN[C@H](CC(C)C)C(=O)N[C@H]1C(=O)N[C@@H](CC(N)=O)C(=O)N[C@H]2C(=O)N[C@H]3C(=O)N[C@H](C(=O)N[C@H](C(=O)O)c4cc(O)cc(O)c4-c4cc3ccc4O)[C@H](O)c3ccc(c(Cl)c3)Oc3cc2cc(c3O[C@@H]2O[C@H](CO)[C@@H](O)[C@H](O)[C@H]2O[C@H]2C[C@](C)(N)[C@H](O)[C@H](C)O2)Oc2ccc(cc2Cl)[C@H]1O	>	64
C[C@H]1COc2c(N3CCN(C)CC3)c(F)cc3c(=O)c(C(=O)O)cn1c23.C[C@H]1COc2c(N3CCN(C)CC3)c(F)cc3c(=O)c(C(=O)O)cn1c23.O	=	32

====

assay: Selectivity index, ratio of CC50 for cytotoxicity against African green monkey Vero cells to MIC for antibacterial activity against Staphylococcus aureus ATCC 29213; type: toxicity, cell-based; details: read-out: Selectivity Index

entry-smiles	qual	selectivity ratio
O=[N+]([O-])c1ccc2[nH]c(-c3ccc(Nc4nc(-c5ccccc5)nc5ccccc45)cc3)nc2c1	=	12.5
O=C(Nc1ccc2nc(-c3cnc4c(Cl)cccc4c3)[nH]c2c1)c1ccc(Nc2nc(-c3ccccc3)nc3ccccc23)cc1	>	6.25
c1ccc(-c2nc(Nc3ccc(-c4nc5ccccc5[nH]4)cc3)c3ccccc3n2)cc1	=	10
COc1ccc(-c2nc(Nc3ccc(-c4nc5cc(Cl)ccc5[nH]4)cc3)c3ccccc3n2)cc1OC	>	6.25
Fc1ccc2[nH]c(-c3ccc(Nc4nc(-c5ccc(Cl)cc5)nc5ccccc45)cc3)nc2c1	=	12.5
Clc1ccc2[nH]c(-c3ccc(Nc4nc(-c5ccccc5)nc5ccccc45)cc3)nc2c1	=	12.5
COc1ccc(-c2nc(Nc3ccc(-c4nc5cc([N+](=O)[O-])ccc5[nH]4)cc3)c3ccccc3n2)cc1OC	=	12.5
Fc1ccc2[nH]c(-c3ccc(Nc4nc(-c5ccccc5)nc5ccccc45)cc3)nc2c1	=	10
Clc1ccc(-c2nc(Nc3ccc(-c4nc5ccccc5[nH]4)cc3)c3ccccc3n2)cc1	=	12.5

====

Entries and their MIC values follow.
system: Staphylococcus aureus; test: Antibacterial activity against methicillin-resistant Staphylococcus aureus NR10186 measured after 16 to 18 hrs; type: functional; details: time 16-18 hrs

compound	assayed-target	qual	MIC / µg/mL
Clc1ccc(-c2nc(Nc3ccc(-c4nc5ccccc5[nH]4)cc3)c3ccccc3n2)cc1	Staphylococcus aureus	=	16
c1ccc(-c2nc(Nc3ccc(-c4nc5ccccc5[nH]4)cc3)c3ccccc3n2)cc1	Staphylococcus aureus	=	8
C[C@@H](O)[C@H]1C(=O)N2C(C(=O)O)=C(S[C@@H]3CN[C@H](C(=O)N(C)C)C3)[C@H](C)[C@H]12 [MEROPENEM]	Staphylococcus aureus	=	8
COc1cccc(OC)c1C(=O)N[C@@H]1C(=O)N2[C@@H]1SC(C)(C)[C@@H]2C(=O)O [METHICILLIN]	Staphylococcus aureus	>	64

====

system: Staphylococcus aureus; assay: Antibacterial activity against methicillin-resistant Staphylococcus aureus NR10186 measured after 16 to 18 hrs; type: functional; conditions: time 16-18 hrs
metric-name: MIC (µg/mL)

entry-smiles	value-observed
Clc1ccc2[nH]c(-c3ccc(Nc4nc(-c5ccccc5)nc5ccccc45)cc3)nc2c1	8
CCCCCCCCCC(=O)N[C@@H](Cc1c[nH]c2ccccc12)C(=O)N[C@H](CC(N)=O)C(=O)N[C@@H](CC(=O)O)C(=O)N[C@@H]1C(=O)NCC(=O)N[C@@H](CCCN)C(=O)N[C@@H](CC(=O)O)C(=O)N[C@H](C)C(=O)N[C@@H](CC(=O)O)C(=O)NCC(=O)N[C@H](CO)C(=O)N[C@@H]([C@H](C)CC(=O)O)C(=O)N[C@@H](CC(=O)c2ccccc2N)C(=O)O[C@@H]1C	0.5
Fc1ccc2[nH]c(-c3ccc(Nc4nc(-c5ccc(Cl)cc5)nc5ccccc45)cc3)nc2c1	4
C[C@H]1COc2c(N3CCN(C)CC3)c(F)cc3c(=O)c(C(=O)O)cn1c23.C[C@H]1COc2c(N3CCN(C)CC3)c(F)cc3c(=O)c(C(=O)O)cn1c23.O	8

These measurements were taken from ChEMBL document CHEMBL4706624.
